Taken from ChEMBL document CHEMBL3046737.

System: Rhyzopertha dominica
Assay: Insecticidal activity against Rhyzopertha dominica after 24 hr
Type: functional
Measured parameter: LC50 (µg/mL)
Express it in µg/mL; write the number only.

# example entries with known answers
CCC(Cl)Cl [DICHLOROPROPANE] ... 5.47
COP(=O)(OC)OC=C(Cl)Cl [DICHLORVOS] ... 0.29

Which LC50 value belongs to CC(C)(O)C#N [DIMETHYLKETONE CYANOHYDRIN] ? 0.4

Which LC50 value belongs to CCC(C)(O)C#N (stereo unspecified) [METHYLETHYL KETONE CYANOHYDRIN] ? 0.41

Which LC50 value belongs to C=CC(C#N)OC(C)=O (stereo unspecified) [1-CYANOALLYL ACETATE] ? 0.37

Which LC50 value belongs to C=CC(O)C#N (stereo unspecified) ? 0.37
